B1: ZNF8 (parent)
chain: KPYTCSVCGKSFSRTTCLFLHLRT

# Variants of: B1
# Assay method text: protein stability index of a GFP-peptide fusion (GPS, HEK-293T) (PSI 1-6); higher = more stable;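 note: lentivirally expressed fusions sorted by FACS into six bins by GFP to DsRed ratio, PSI derived from sequencing read proportions per bin multiplied by bin number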
# Study conditions: c terminus: a fixed tail appended
Property: protein stability index
Give only the figure.

Answered examples (4):
KPYTCSVCGKSFSRTTCLFLYLRT [H21Y] ... 1.57
KPYTCSVCGKSFSRTTCLQLHLRT [F19Q] ... 2.54
KPYTCSVCTKSFSRTTCLFLHLRT [G9T] ... 1.5
KPYTCSVCGKSFSRTTCLFLMLRT [H21M] ... 2.16

Give its protein stability index value. Item: KPYTCSVCGKSFSGTTCLFLHLRT [R14G]
1.89

// protein stability index lookup, key: KPYTCSVCGKSFSRTTCLFLGLRT [H21G]
1.94
